System: Receptor-interacting serine/threonine-protein kinase 3 (Homo sapiens) | Read-out: pKd | Origin: multiple publications
pKd: −log10 of the molar value.

# MOLECULE, pKd
records = [
    ("C[C@H](Oc1cc(-c2nn(C)c3c(-c4cnn(C5CCOCC5)c4)cnc(N)c23)ccc1NS(=O)(=O)CC(F)(F)F)c1ccc(F)cc1", "< 5.00"),
]

Enquiry: Query: pKd; subject: "CCS(=O)(=O)Nc1ccc(-c2n[nH]c(Nc3ccc(C(F)(F)F)cn3)c2C(N)=O)cc1OCc1ccc(F)cc1"
Return: < 4.52

Enquiry: Query: pKd; subject: CC(C)N(C)C(=O)C(C)n1cc(-c2cnc(N)c3c(-c4ccc(NS(=O)(=O)C(F)F)c(O[C@@H](C)c5ccc(F)cc5)c4)nn(C)c23)cn1 (stereo partly drawn)
Return: < 5.00

----------
System: Receptor-interacting serine/threonine-protein kinase 3 (Homo sapiens) | Read-out: Kd | Origin: multiple publications

Guide cases for Kd, answers given:
# SMILES_CODE, TGT, Kd
data = [
    ("CCS(=O)(=O)Nc1ccc(-c2n[nH]c(Nc3cnc(OC)cn3)c2C(N)=O)cc1", "Receptor-interacting serine/threonine-protein kinase 3 (Homo sapiens)", "> 30 µM"),
    ("NC(=O)c1c(-c2ccc(NS(=O)(=O)C(F)(F)F)cc2)n[nH]c1Nc1cccc(C(F)(F)F)n1", "Receptor-interacting serine/threonine-protein kinase 3 (Homo sapiens)", "> 30 µM"),
    ("CC(C)n1nc(-c2ccc(NS(=O)(=O)C(F)F)c(O[C@@H](C)c3ccc(F)cc3)c2)c2c(N)ncc(-c3cnn(C4CCOCC4)c3)c21", "Receptor-interacting serine/threonine-protein kinase 3 (Homo sapiens)", "> 10 µM"),
    ("C[C@H](Oc1cc(-c2nn(C)c3c(-c4cnn(C(F)(F)F)c4)cnc(N)c23)ccc1NS(=O)(=O)C(F)F)c1ccc(F)cc1", "Receptor-interacting serine/threonine-protein kinase 3 (Homo sapiens)", "> 10 µM"),
]

Lab note: next molecule to report on.
Enquiry: Query: Kd; subject: "CC(C)Oc1cc(-c2nn(C)c3c(-c4cnn(C5CCOCC5)c4)cnc(N)c23)ccc1NS(=O)(=O)C(F)F"
Return: > 10 µM
